All values here come from PubChem BioAssay (NCI).

Test system: OVCAR-4 ovarian
Assay: NCI tumour cell line growth inhibition, 48 h

- Compound: "OCc1cn(Cc2cccc(Cl)c2)c2ccccc12"
  TGI: "11.3 µM"
- Compound: "O=C1CCC(Cc2ccc(Cl)cc2Cl)C(=O)N1 (centres undefined)"
  TGI: "> 100 µM"
- Compound: "CCCC1c2c(ccc3ccccc23)Oc2ccc3ccccc3c21"
  TGI: "> 100 µM"
- Compound: "O=C1CCc2cc3c(cc21)C(C(=O)O)CC3 (centres undefined)"
  TGI: "> 100 µM"
- Compound: "CCOC(=O)NC(OCc1ccccc1)(C(=O)OC)C(F)(F)F (centres undefined)"
  TGI: "> 100 µM"
- Compound: "Cc1cn(C2CC(SCCO)C(CO)O2)c(=O)[nH]c1=O (centres undefined)"
  TGI: "> 100 µM"
- Compound: "CSc1nc2c(c(=O)[nH]1)N=C1c3ccccc3C(=O)C1C(c1ccc(F)cc1)N2 (centres undefined)"
  TGI: "67 µM"
- Compound: "COc1ccc(C=C2C(=O)OC(C)(C)OC2=O)cc1OC"
  TGI: "> 100 µM"
- Compound: "O=C(c1ccccc1)c1ccc2nc(-c3c(Cl)c(Cl)c(Cl)c(Cl)c3C(=O)Nc3ccco3)[nH]c2c1"
  TGI: "> 100 µM"
- Compound: "CCCN(CCCCC(NC(C)=O)C(=O)NCc1ccccc1)C(=O)NCCCl (centres undefined)"
  TGI: "> 100 µM"
- Compound: "Cn1cnc(/C=C/C#N)c1"
  TGI: "> 100 µM"
- Compound: "O=C(/C=C/c1cccnc1)NCCCCC1CCN(C(=O)c2ccccc2)CC1"
  TGI: "> 100 µM"
- Compound: "COCCN(C(=O)c1ccccc1)C1CCC(=O)c2[nH]c3ccccc3c21 (centres undefined)"
  TGI: "22.2 µM"
- Compound: "O=C1c2ccccc2C2(c3ccc(Cl)cc3)N[C@@H]3CCCC[C@@H]3N12 (some centres undefined)"
  TGI: "> 100 µM"
- Compound: "O=C(O)c1cc(Nc2c(O)c3c(c(O)c2Cl)C(=O)C=CC3=O)ccc1O"
  TGI: "> 10 µM"
- Compound: "N#Cc1c(C(=O)c2ccccc2)cnn1-c1ccccc1"
  TGI: "> 25 µM"
- Compound: "COc1cc2oc(=O)ccc2cc1C1OC(=O)C2OC21C (centres undefined)"
  TGI: "> 100 µM"
- Compound: "CCCC(CC)c1cc(O)c(O)cc1C(CC)CCC (centres undefined)"
  TGI: "> 10 µM"
- Compound: "O=C1/C(=C(/Br)I)c2ccccc2-c2ccccc21"
  TGI: "32.3 µM"
- Compound: "CCn1c(SCc2nnc(Nc3ccccc3)s2)nc2ccccc2c1=O"
  TGI: "5 µM"
- Compound: "O=C(NCCNCCO)N/N=C/c1ccccc1"
  TGI: "> 100 µM"
- Compound: "O=C1Sc2cc3ccccc3cc2C(=O)Sc2cc3ccccc3cc21"
  TGI: "69.5 µM"
- Compound: "Cc1ccc2c(c1)nc(C(=O)c1ccco1)c(C(F)(F)F)[n+]2[O-]"
  TGI: "> 100 µM"
- Compound: "S=c1oc(CCCCCCCCc2nn(CNc3ccc(Cl)cc3)c(=S)o2)nn1CNc1ccc(Cl)cc1"
  TGI: "> 100 µM"
- Compound: "COc1cccc(OC/C(N=Cc2ccncc2)=N/NC(=O)c2ccncc2)c1"
  TGI: "> 100 µM"
- Compound: "O=C(O)c1ccc2c(c1)Cc1cc([N+](=O)[O-])ccc1-2"
  TGI: "> 100 µM"
- Compound: "N#CC(=S)Nc1cccc(Cl)c1"
  TGI: "> 100 µM"
- Compound: "CCN(Cc1cccc(OC)c1)c1ccc(CO)c(Cl)c1"
  TGI: "14.3 µM"
- Compound: "CC1Cc2c(cc(N)nc2Br)NC1=O (centres undefined)"
  TGI: "> 100 µM"
- Compound: "Cn1c(O)c(/C=N/c2ncccn2)c(=O)[nH]c1=O"
  TGI: "> 100 µM"
- Compound: "Cc1ccc(Cl)c2c(=O)cc(-c3ccccc3)[nH]c12"
  TGI: "> 100 µM"
- Compound: "CC(=O)NCC1OC2COC(c3ccccc3)OC2C2N=C(c3ccccc3)OC12 (centres undefined)"
  TGI: "> 100 µM"
- Compound: "CCCCCCCCCCC[N+]1(Cc2ccccc2)CC2CCN(Cc3ccccc3)CC2C1 (centres undefined)"
  TGI: "2.02 µM"
- Compound: "COC(=O)C(CCS(=O)(=O)CC(=O)C(=O)Nc1cccc(C(C)=O)c1)C(=O)OC"
  TGI: "> 100 µM"
- Compound: "CC(C)(C)C(=O)O[C@H]1C=C[C@@H](O)[C@@H]2[C@H]1[C@@H]1C=C[C@H]2C1"
  TGI: "60 µM"
- Compound: "CN(c1ccc(Cl)cc1)S(=O)(=O)c1ccccc1"
  TGI: "> 100 µM"
- Compound: "CC(=O)OC1C(=O)C(O)C(C)OC1O[C@@H]1C[C@@]2(C)[C@@H]3CC=C4[C@@H](C[C@H](O)C(=O)C4(C)C)[C@]3(C)C(=O)C[C@]2(C)[C@H]1[C@@](C)(O)C(=O)/C=C/C(C)(C)O (some centres undefined)"
  TGI: "5.51 µM"
- Compound: "COc1ccccc1NC(=O)CSC(N)=O"
  TGI: "> 100 µM"
- Compound: "Cc1ccc(C(CN(C)C)C(=O)c2ccccc2)cc1 (centres undefined)"
  TGI: "13 µM"
- Compound: "NC(=O)c1cnc(N[C@@H]2CCCC[C@@H]2N)nc1Nc1cccc(-n2nccn2)c1"
  TGI: "19.6 µM"
- Compound: "Cc1cccc(C(C)(C)C)c1NC(=O)C(=O)C(C(=O)/C=C\\c1ccccc1)C1OC(=O)c2ccccc21 (centres undefined)"
  TGI: "> 100 µM"
- Compound: "N#C[C@H]1C(=O)C(c2nc3ccccc3[nH]2)S[C@H]1c1ccccc1 (some centres undefined)"
  TGI: "> 100 µM"
- Compound: "CCN1C2=NC(=O)N(C)C(=O)C2(Cl)C(C(SC)S(=O)(=O)c2ccc(C)cc2)c2ccccc21 (centres undefined)"
  TGI: "58.9 µM"
- Compound: "CCOc1ccc(N=Cc2cccc3cccnc23)cc1"
  TGI: "> 100 µM"
